# System: Enterococcus faecalis
# TEST_DESCRIPTION: Antibacterial activity against Enterococcus faecalis ATCC 29212 by broth microdilution method
# Format: functional
ATTRIBUTE_MEASURED: MIC (µg/mL)
Report the value in µg/mL with no unit label.

SMILES_INPUT	ATTRIBUTE_MEASURED	UNIT_TAG	REPORTED_RESULT
Cc1sc2nc1C(=O)N[C@@H]([C@H](O)c1ccccc1)c1nc(cs1)C(=O)N[C@@H](Cc1ccc(O)cc1)C(=O)N[C@@H]([C@@H](C)[C@@H](O)CN)c1nc(cs1)-c1nc(cs1)-c1nc(-c3nc(C(N)=O)cs3)ccc1-c1nc(cs1)C(=O)N[C@H]2CC(N)=O	MIC	µg/mL	1

Report MIC for C=C(NC(=O)c1csc(-c2ccc3c(n2)-c2csc(n2)-c2csc(n2)[C@H]([C@@H](C)[C@@H]2CO2)NC(=O)[C@H](Cc2ccc(OC)cc2)NC(=O)c2csc(n2)[C@H]([C@H](O)c2ccccc2)NC(=O)c2nc(sc2C)[C@H](CC(N)=O)NC(=O)c2csc-3n2)n1)C(=O)NC(=C)C(=O)OC please.
8
